system: WM1552C; experiment: apoptotic fraction of cells (caspase-3 NucView488 positive); higher = more apoptosis; conditions: 72 h; 1 µM
Listing of entries alongside the reported apoptotic fraction of cells.

# molecule, apoptotic fraction of cells
records = [
    ("CN(C)CCOc1ccc(-c2nc(-c3ccncc3)c(-c3ccc4c(c3)CC/C4=N\\O)[nH]2)cc1", 0.0776),
    ("Cn1cnc2c(F)c(Nc3ccc(Br)cc3Cl)c(C(=O)NOCCO)cc21 [Selumetinib]", 0.146),
    ("CCCS(=O)(=O)Nc1ccc(F)c(C(=O)c2c[nH]c3ncc(Cl)cc23)c1F [PLX4720]", 0.0953),
    ("CCCS(=O)(=O)Nc1ccc(F)c(C(=O)c2c[nH]c3ncc(-c4ccc(Cl)cc4)cc23)c1F [Vemurafenib]", 0.0874),
    ("Cc1ccc(NC(=O)c2cccc(C(C)(C)C#N)c2)cc1Nc1ccc2ncn(C)c(=O)c2c1 [AZ628]", 0.153),
]
